Experiment: recombinant UMI read abundance after kanamycin selection (control-corrected) (log10(CPM+1)); higher = more efficient recombination; extreme values may be limits of the assay; sequences stand for … in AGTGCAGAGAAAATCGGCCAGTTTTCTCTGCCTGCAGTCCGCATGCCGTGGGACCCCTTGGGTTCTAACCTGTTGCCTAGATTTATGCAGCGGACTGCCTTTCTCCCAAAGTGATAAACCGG…AGGTTGGTTTCACT; site = the 11-nt donor;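 also: IS621 bridge recombinase in Escherichia coli cells against a fixed T5 target plasmid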
Readout type: recombinant UMI read abundance (log10)

# Query sequence, Readout type, Value measured
rows = [
    ("GATCTGCCATGGACCGGTTTTCCCGGTAATCCGTATTTGAA (site GATCTGCCTTT)", "recombinant UMI read abundance (log10)", 0.00302),
    ("AAAGTATCATGGACCGGTTTTCCCGGTAATCCGTATTTGCA (site ACAGTATCTTG)", "recombinant UMI read abundance (log10)", 2.64),
    ("AATGGGTCATGGACCGGTTTTCCCGGTAATCCGTATTTGAC (site AATGAGTCTGT)", "recombinant UMI read abundance (log10)", 0.146),
    ("TGCCCTGCATGGACCGGTTTTCCCGGTAATCCGTATTTGTT (site TGCCCTGCTAA)", "recombinant UMI read abundance (log10)", 0.0362),
    ("CCCATTTCATGGACCGGTTTTCCCGGTAATCCGTATTTGTC (site CCCATATCTGA)", "recombinant UMI read abundance (log10)", 0),
    ("CAAGTAGCATGGACCGGTTTTCCCGGTAATCCGTATTTGCT (site CAAGGAGCTAG)", "recombinant UMI read abundance (log10)", 0.0678),
    ("GCCTGGCCATGGACCGGTTTTCCCGGTAATCCGTATTTGCT (site GCCTGGCCTAG)", "recombinant UMI read abundance (log10)", 0),
    ("AACCTAGCATGGACCGGTTTTCCCGGTAATCCGTATTTGTT (site AGCCTAGCTAA)", "recombinant UMI read abundance (log10)", 0.024),
]

Prompt line: Report recombinant UMI read abundance (log10) for GAAGATTCATGGACCGGTTTTCCCGGTAATCCGTATTTGCT (site GAAGATTCTAC) please.
Response line: 0

Prompt line: Same again, this time with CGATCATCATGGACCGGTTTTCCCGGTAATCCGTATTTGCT (site TGATCATCTAC)
Response line: 0.00378

Prompt line: And what about the sequence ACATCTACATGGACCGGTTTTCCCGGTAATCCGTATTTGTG (site ACATCCACTCA) ?
Response line: 0.0072

----------
Documented recombinant UMI read abundance (log10) across a set of sequences
Assay: recombinant UMI read abundance after kanamycin selection (control-corrected) (log10(CPM+1)); higher = more efficient recombination; extreme values may be limits of the assay; sequences stand for … in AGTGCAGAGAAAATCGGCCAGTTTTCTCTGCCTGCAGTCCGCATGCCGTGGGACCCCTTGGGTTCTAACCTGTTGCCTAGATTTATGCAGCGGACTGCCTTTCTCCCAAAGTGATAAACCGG…AGGTTGGTTTCACT; site = the 11-nt donor
The response must contain the number and no unit.

Answered examples (5):
# Query sequence, Readout type, Value measured
rows = [
    ("AAAGACCCATGGACCGGTTTTCCCGGTAATCCGTATTTGGT (site AAAGACCCTAC)", "recombinant UMI read abundance (log10)", 1.02),
    ("TACCCTGCATGGACCGGTTTTCCCGGTAATCCGTATTTGCA (site TACCCTGCTTG)", "recombinant UMI read abundance (log10)", 0),
    ("GGGAATCCATGGACCGGTTTTCCCGGTAATCCGTATTTGTC (site GGGAATCCTGA)", "recombinant UMI read abundance (log10)", 0),
    ("GGGGAGGCATGGACCGGTTTTCCCGGTAATCCGTATTTGTG (site GCGGAGGCTCA)", "recombinant UMI read abundance (log10)", 0.00803),
    ("CTCAGAACATGGACCGGTTTTCCCGGTAATCCGTATTTGCC (site CTCAGAACTGG)", "recombinant UMI read abundance (log10)", 1.47),
]

From here, focus on the item given below.
Prompt line: Recorded recombinant UMI read abundance (log10) for AGCCCCTCATGGACCGGTTTTCCCGGTAATCCGTATTTGCA (site AGCCCCTCTTG) , please?
Response line: 2.75
